Reported inhibition at 10 µM by item:
Target of assay: prolyl endopeptidase (Rattus norvegicus)
Construct: prolyl endopeptidase extracted from rat brain; from tissue; host or cells: rat brain
Sequence (O70196 whole entry): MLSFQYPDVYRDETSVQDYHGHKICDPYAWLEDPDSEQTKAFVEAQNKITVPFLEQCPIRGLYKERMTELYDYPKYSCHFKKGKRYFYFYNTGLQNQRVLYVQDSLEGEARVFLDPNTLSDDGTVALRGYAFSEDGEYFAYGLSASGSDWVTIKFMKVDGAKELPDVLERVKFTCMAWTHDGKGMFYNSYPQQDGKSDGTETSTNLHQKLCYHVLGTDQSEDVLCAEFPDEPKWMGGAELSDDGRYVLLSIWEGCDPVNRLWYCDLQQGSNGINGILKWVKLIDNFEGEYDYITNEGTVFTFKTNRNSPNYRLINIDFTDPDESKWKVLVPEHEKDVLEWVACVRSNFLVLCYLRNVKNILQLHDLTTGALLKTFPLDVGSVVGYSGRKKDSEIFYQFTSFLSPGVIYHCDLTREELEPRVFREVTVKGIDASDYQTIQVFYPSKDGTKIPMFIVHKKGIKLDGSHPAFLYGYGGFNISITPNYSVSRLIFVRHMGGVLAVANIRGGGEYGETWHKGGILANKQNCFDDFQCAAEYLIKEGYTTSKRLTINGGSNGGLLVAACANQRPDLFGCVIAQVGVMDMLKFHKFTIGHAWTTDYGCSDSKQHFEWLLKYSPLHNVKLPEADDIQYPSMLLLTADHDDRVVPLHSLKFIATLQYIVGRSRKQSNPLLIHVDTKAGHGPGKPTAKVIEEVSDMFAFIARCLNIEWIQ
Experimental details: Prolyl Endopeptidase-Inhibitory Activity
Type: biochemical
Protocol conditions: 1 × 10^-5 M; read-out: Inhibition rate, prolyl endopeptidase
Write it as a number; the unit % goes unstated.

chemical_string=O=C1CCCN1CC(=O)N1CCC[C@H]1C(=O)N1CCSC1 parameter_measured="inhibition at 10 µM" experimental_value=96
chemical_string=O=C1CCCN1CC(=O)N1CSC[C@H]1C(=O)N1CCSC1 parameter_measured="inhibition at 10 µM" experimental_value=97
chemical_string=O=C([C@@H]1CCCN1C(=O)OCc1ccccc1)N1CCC[C@H]1C=NO parameter_measured="inhibition at 10 µM" experimental_value=100

Lab note: next molecule to report on.
Ask: Tell me inhibition at 10 µM reported for O=C([C@@H]1CCCN1C(=O)OCc1ccccc1)N1CCC[C@H]1C=NOCc1ccccc1
Result: 100
